# Test system: Aspergillus furnigatus B. 19119
# ASSAY EXPLANATION: In vitro antifungal activity, microbroth dilution MIC
# Type: cell-based
# MEASUREMENT PARAMETERS: RPMI-1640, 35° C., no growth observed
ATTRIBUTE MEASURED: Minimal inhibitory concentration(MIC), A furnigatus B. 19119 (µg/mL)

| COMPOUND | ASSAY SYSTEM | MEASURED RESULT |
| --- | --- | --- |
| FC(=C(c1ccc(Oc2ccccc2)cc1)C(F)(F)F)N1CCN(c2ccc(OCC3COC(Cn4ccnc4)(c4ccc(F)cc4F)O3)cc2)CC1 (mixture of isomers) | Aspergillus furnigatus B. 19119 | 100 |
| Cc1cc(C)cc(C(=C(F)N2CCN(c3ccc(OCC4COC(Cn5ccnc5)(c5ccc(F)cc5F)O4)cc3)CC2)C(F)(F)F)c1 (mixture of isomers) | Aspergillus furnigatus B. 19119 | 50.0 |
| COc1ccc(C(=C(F)N2CCN(c3ccc(OCC4COC(Cn5ccnc5)(c5ccc(F)cc5F)O4)cc3)CC2)C(F)(F)F)cc1 (mixture of isomers) | Aspergillus furnigatus B. 19119 | 100 |
| FC(=C(c1cccc(F)c1)C(F)(F)F)N1CCN(c2ccc(OCC3COC(Cn4ccnc4)(c4ccc(F)cc4F)O3)cc2)CC1 (mixture of isomers) | Aspergillus furnigatus B. 19119 | 12.5 |

----------
# System: Candida krusei K. 11655
# ASSAY EXPLANATION: In vitro antifungal activity, microbroth dilution MIC
# Assay type: cell-based
# MEASUREMENT PARAMETERS: RPMI-1640, 35° C., 4 to 48 hours, no growth observed
# Text: […]
Minimal inhibitory concentration(MIC), C. krusei K. 11655 values for the compounds below.
ATTRIBUTE MEASURED: Minimal inhibitory concentration(MIC), C. krusei K. 11655

| COMPOUND | MEASURED RESULT |
| --- | --- |
| FC(Oc1ccc(OCC2COC(Cn3ccnc3)(c3ccc(Cl)cc3Cl)O2)cc1)=C(c1ccc(C(F)(F)F)cc1)C(F)(F)F (mixture of isomers) | >100 µg/mL |
| Cc1cccc(C(=C(F)Oc2ccc(OCC3COC(Cn4ccnc4)(c4ccc(F)cc4F)O3)cc2)C(F)(F)F)c1 (mixture of isomers) | >100 µg/mL |
| FC(Oc1ccc(OCC2COC(Cn3ccnc3)(c3ccc(F)cc3F)O2)cc1)=C(c1ccc2c(c1)OCO2)C(F)(F)F (mixture of isomers) | >100 µg/mL |
| FC(Oc1ccc(OCC2COC(Cn3ccnc3)(c3ccc(F)cc3F)O2)cc1)=C(c1cccc(F)c1)C(F)(F)F (mixture of isomers) | >100 µg/mL |
| Cc1cc(C)cc(C(=C(F)N2CCN(c3ccc(OCC4COC(Cn5ccnc5)(c5ccc(F)cc5F)O4)cc3)CC2)C(F)(F)F)c1 (mixture of isomers) | 1.56 µg/mL |
| Cc1ccc(C(=C(F)Oc2ccc(OCC3COC(Cn4ccnc4)(c4ccc(F)cc4F)O3)cc2)C(F)(F)F)cc1C (mixture of isomers) | >100 µg/mL |

----------
Minimal inhibitory concentration(MIC), Cry. neoformans B. 42419 values for the compounds below.
# Tested on: Cryptococcus neoformans B. 42419
# ASSAY EXPLANATION: In vitro antifungal activity, microbroth dilution MIC
# Assay type: cell-based
# MEASUREMENT PARAMETERS: RPMI-1640, 35° C., 4 to 48 hours, no growth observed
ATTRIBUTE MEASURED: Minimal inhibitory concentration(MIC), Cry. neoformans B. 42419

| COMPOUND | ASSAY SYSTEM | MEASURED RESULT |
| --- | --- | --- |
| FC(Oc1ccc(OCC2COC(Cn3cncn3)(c3ccc(Cl)cc3Cl)O2)cc1)=C(c1ccc(Cl)cc1)C(F)(F)F (mixture of isomers) | Cryptococcus neoformans B. 42419 | 1.56 µg/mL |
| FC(=C(c1ccc(Oc2ccccc2)cc1)C(F)(F)F)N1CCN(c2ccc(OCC3COC(Cn4ccnc4)(c4ccc(F)cc4F)O3)cc2)CC1 (mixture of isomers) | Cryptococcus neoformans B. 42419 | 0.78 µg/mL |
| FC(=C(c1ccccc1)C(F)(F)F)N1CCN(c2ccc(OCC3COC(Cn4ccnc4)(c4ccc(F)cc4F)O3)cc2)CC1 (mixture of isomers) | Cryptococcus neoformans B. 42419 | 0.78 µg/mL |
| FC(OCC1COC(Cn2cncn2)(c2ccc(Cl)cc2Cl)O1)=C(c1ccc(F)cc1)C(F)(F)F (mixture of isomers) | Cryptococcus neoformans B. 42419 | 1.56 µg/mL |
| CCCCc1ccc(C(=C(F)N2CCN(c3ccc(OCC4COC(Cn5ccnc5)(c5ccc(F)cc5F)O4)cc3)CC2)C(F)(F)F)cc1 (mixture of isomers) | Cryptococcus neoformans B. 42419 | 1.56 µg/mL |
| Cc1ccc(C=C(F)OCC2COC(Cn3cncn3)(c3ccc(Cl)cc3Cl)O2)cc1 (mixture of isomers) | Cryptococcus neoformans B. 42419 | 1.56 µg/mL |
| FC(Oc1ccc(OCC2COC(Cn3ccnc3)(c3ccc(F)cc3F)O2)cc1)=C(c1cc(Cl)cc(Cl)c1)C(F)(F)F (mixture of isomers) | Cryptococcus neoformans B. 42419 | 1.56 µg/mL |
| FC(Oc1ccc(OCC2COC(Cn3ccnc3)(c3ccc(Cl)cc3Cl)O2)cc1)=C(c1cccc(F)c1)C(F)(F)F (mixture of isomers) | Cryptococcus neoformans B. 42419 | 3.13 µg/mL |
| CCc1ccc(C(=C(F)Oc2ccc(OCC3COC(Cn4ccnc4)(c4ccc(F)cc4F)O3)cc2)C(F)(F)F)cc1 (mixture of isomers) | Cryptococcus neoformans B. 42419 | 3.13 µg/mL |
| Cc1ccc(C(=C(F)Oc2ccc(OCC3COC(Cn4cncn4)(c4ccc(Cl)cc4Cl)O3)cc2)C(F)(F)F)cc1 (mixture of isomers) | Cryptococcus neoformans B. 42419 | 3.13 µg/mL |
| COc1ccc(C(=C(F)N2CCN(c3ccc(OCC4COC(Cn5ccnc5)(c5ccc(F)cc5F)O4)cc3)CC2)C(F)(F)F)cc1 (mixture of isomers) | Cryptococcus neoformans B. 42419 | 0.39 µg/mL |
| FC(=Cc1ccc(F)cc1)Oc1ccc(OCC2COC(Cn3ccnc3)(c3ccc(Cl)cc3Cl)O2)cc1 (mixture of isomers) | Cryptococcus neoformans B. 42419 | 3.13 µg/mL |
| FC(=Cc1ccccc1)Oc1ccc(OCC2COC(Cn3ccnc3)(c3ccc(Cl)cc3Cl)O2)cc1 (mixture of isomers) | Cryptococcus neoformans B. 42419 | 1.56 µg/mL |
| FC(Oc1ccc(OCC2COC(Cn3ccnc3)(c3ccc(Cl)cc3Cl)O2)cc1)=C(c1cc(Cl)cc(Cl)c1)C(F)(F)F (mixture of isomers) | Cryptococcus neoformans B. 42419 | 3.13 µg/mL |
| COc1ccc(C=C(F)Oc2ccc(OCC3COC(Cn4cncn4)(c4ccc(Cl)cc4Cl)O3)cc2)cc1 (mixture of isomers) | Cryptococcus neoformans B. 42419 | 1.56 µg/mL |
| FC(=C(c1ccc(Cl)cc1)C(F)(F)F)N1CCN(c2ccc(OCC3COC(Cn4ccnc4)(c4ccc(F)cc4F)O3)cc2)CC1 (mixture of isomers) | Cryptococcus neoformans B. 42419 | 0.39 µg/mL |
| FC(=C(c1cccc(F)c1)C(F)(F)F)N1CCN(c2ccc(OCC3COC(Cn4ccnc4)(c4ccc(F)cc4F)O3)cc2)CC1 (mixture of isomers) | Cryptococcus neoformans B. 42419 | 0.78 µg/mL |
| FC(=C(c1ccc(Cl)cc1)C(F)(F)F)N1CCN(c2ccc(OCC3COC(Cn4ccnc4)(c4ccc(Cl)cc4Cl)O3)cc2)CC1 (mixture of isomers) | Cryptococcus neoformans B. 42419 | 0.78 µg/mL |
